Ends that are not written are not given here.
quantity kind: RBC lysis

- RRVWRWVRRWWRRV [H-RWV14]: 3%

###

System: P. aeruginosa
Assay type: cell-based
Settings: 18 h
Description: To examine antibacterial activity, we used minor modifications of a standard growth inhibition assay endorsed by the Clinical and Laboratory Standards Institute (CLSI), as previously described. […] A robotic system takes a plate from the drawer every hour and feeds a plate reader, which records the kinetics of bacterial growth at 570 nm to examine growth inhibition in real time (BioTek Instruments, Winooski, VT, USA). […]
Ends that are not written are not given here.
quantity kind: Mean MIC, P. aeruginosa (µM)

* RRWWRRWW [H-RWV8] | 27
* RRRRRWWWWV [L-RWV10] | 22
* RRVWRWVRRWWR [H-RWV12] | 24
* RRRRRRRRWWWWVVVV [L-RWV16] | 32
* RRVWRWVRRWWRRV [H-RWV14] | 12
* RRWWRRVWRW [H-RWV10] | 24
* RRRRRRRWWWWVVV [L-RWV14] | 21
* RRRRWWWW [L-RWV8] | 30

###

Catalogue of MBEC (minimum biofilm elimination concentration, no detectable biomass) values
system: S. aureus (SA719) biofilm; format: cell-based; conditions: 24 h
Ends that are not written are not given here.
quantity kind: MBEC (minimum biofilm elimination concentration, no detectable biomass) (µM)

* RRVWRWVRRWWR [H-RWV12] | 2
* RRRRRRRWWWWVVV [L-RWV14] | 2.6
* RRVWRWVRRWWRRV [H-RWV14] | 1.7
* RRRRRRWWWWVV [L-RWV12] | 2.5

###

tested on: K. pneumoniae; type: cell-based; details: 18 h
Ends that are not written are not given here.
quantity kind: Mean MIC, K. pneumoniae (µM)

- RRWWRRVWRW [H-RWV10]: 29
- RRRRRRRWWWWVVV [L-RWV14]: 3
- RRVWRWVRRWWR [H-RWV12]: 18
- RRVWRWVRRWWRRV [H-RWV14]: 7.5
- RRRRRWWWWV [L-RWV10]: 26
- RRRRWWWW [L-RWV8]: 20
- RRWWRRWW [H-RWV8]: 29
- RRRRRRRRWWWWVVVV [L-RWV16]: 32

###

Catalogue of Mean MIC, S. aureus values
tested on: S. aureus; assay type: cell-based; conditions: 18 h
Ends that are not written are not given here.
quantity kind: Mean MIC, S. aureus

• RRRRRRRWWWWVVV [L-RWV14] = 3 ± 1 µM
• RRVWRWVRRWWR [H-RWV12] = 18 ± 12 µM
• RRRRWWWW [L-RWV8] = 20. ± 0.7 µM
• RRRRRWWWWV [L-RWV10] = 26 ± 8 µM
• RRWWRRVWRW [H-RWV10] = 29 ± 6.5 µM
• RRVWRWVRRWWRRV [H-RWV14] = 7.5 ± 12 µM
• RRWWRRWW [H-RWV8] = 29 ± 7 µM
• RRRRRRRRWWWWVVVV [L-RWV16] = 32 µM
